TARGET UNDER TEST: Bifunctional 3'-5' exonuclease/ATP-dependent helicase WRN (Homo sapiens, UniProt Q14191)
Sequence (Q14191 whole entry): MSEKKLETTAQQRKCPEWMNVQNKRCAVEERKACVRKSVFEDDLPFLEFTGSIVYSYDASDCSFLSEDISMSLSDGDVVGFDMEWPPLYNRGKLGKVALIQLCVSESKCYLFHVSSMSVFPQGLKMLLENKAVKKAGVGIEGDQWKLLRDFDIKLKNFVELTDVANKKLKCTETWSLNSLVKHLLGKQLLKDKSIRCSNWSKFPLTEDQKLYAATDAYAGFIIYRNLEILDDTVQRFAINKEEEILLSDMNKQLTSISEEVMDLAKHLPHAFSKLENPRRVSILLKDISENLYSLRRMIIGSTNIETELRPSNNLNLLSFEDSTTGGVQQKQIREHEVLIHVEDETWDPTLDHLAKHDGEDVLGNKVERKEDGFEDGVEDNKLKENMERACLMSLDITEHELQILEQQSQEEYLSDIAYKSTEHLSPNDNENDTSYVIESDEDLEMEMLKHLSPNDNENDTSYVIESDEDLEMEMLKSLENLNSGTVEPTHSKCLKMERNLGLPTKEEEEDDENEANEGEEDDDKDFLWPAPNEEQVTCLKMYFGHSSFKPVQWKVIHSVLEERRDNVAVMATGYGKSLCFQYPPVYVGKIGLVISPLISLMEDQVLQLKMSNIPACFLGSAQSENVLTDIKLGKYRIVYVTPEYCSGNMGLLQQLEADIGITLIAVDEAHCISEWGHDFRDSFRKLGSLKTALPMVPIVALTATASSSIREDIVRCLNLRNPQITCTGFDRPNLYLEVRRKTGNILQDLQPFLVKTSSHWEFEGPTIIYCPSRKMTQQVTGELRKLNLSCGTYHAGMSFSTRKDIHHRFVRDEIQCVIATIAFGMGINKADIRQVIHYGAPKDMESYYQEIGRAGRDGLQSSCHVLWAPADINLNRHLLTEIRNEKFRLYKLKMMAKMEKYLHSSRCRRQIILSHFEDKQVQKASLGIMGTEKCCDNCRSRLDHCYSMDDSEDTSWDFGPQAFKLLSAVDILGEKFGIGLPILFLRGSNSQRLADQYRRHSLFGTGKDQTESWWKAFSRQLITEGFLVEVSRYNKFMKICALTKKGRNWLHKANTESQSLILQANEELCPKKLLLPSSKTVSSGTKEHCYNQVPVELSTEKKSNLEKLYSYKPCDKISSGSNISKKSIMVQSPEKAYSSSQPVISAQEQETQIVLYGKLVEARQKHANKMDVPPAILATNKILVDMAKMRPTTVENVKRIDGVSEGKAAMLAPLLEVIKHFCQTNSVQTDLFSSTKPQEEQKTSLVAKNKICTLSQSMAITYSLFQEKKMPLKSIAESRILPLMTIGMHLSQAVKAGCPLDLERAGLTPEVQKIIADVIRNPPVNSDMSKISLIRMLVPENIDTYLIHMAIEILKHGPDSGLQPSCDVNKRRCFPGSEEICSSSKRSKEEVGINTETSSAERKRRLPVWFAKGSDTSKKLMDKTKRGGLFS
TEST NAME: ADP-Glo Kinase Assay
Description: ATPase activity was measured using the ADP-Glo Kinase Assay following the manufacturers recommended protocol.
pIC50: −log10 of the molar value.
// 0.0 strictly below 7 in pIC50; 1.0 otherwise

INSERT INTO measurements (smiles_input, assigned_class) VALUES
  ('CCc1c(N2CCN(C(=O)c3ncnc(C)c3O)CC2)c(=O)n2nc(-c3ccc4c(c3)C(=O)N(C)C4)nc2n1CC(=O)Nc1ccc(C(F)(F)F)cc1Cl', 1.0),
  ('CCc1c(N2CCN(C(=O)C(F)(F)C3(O)CCC3)CC2)c(=O)n2nc(C3=CCOCC3)nc2n1CC(=O)Nc1ccc(C(F)(F)F)cc1Cl', 0.0),
  ('CCc1c(N2CCN(C(=O)c3ncnc(C)c3O)CC2)c(=O)n2nc(-c3ccc4c(c3)CO[C@H]4C)nc2n1CC(=O)Nc1ccc(C(F)(F)F)cc1Cl', 1.0),
  ('CCc1c(N2CCN(C(=O)c3ncnc(C)c3O)CC2)c(=O)n2nc(-c3ccc4c(c3)C(F)(F)CC4)nc2n1CC(=O)Nc1ccc(C(F)(F)F)cc1Cl', 1.0),
  ('CCc1c(N2CCN(C(=O)c3ncnc(C)c3O)CC2)c(=O)n2nc(-c3ccc4c(c3)CCOC4(C)C)nc2n1CC(=O)Nc1ccc(C(F)(F)F)cc1Cl', 1.0),
  ('CCc1c(N2CCN(C(=O)c3ncnc(C)c3O)CC2)c(=O)n2nc(-c3cncc4c3COCC4)nc2n1CC(=O)Nc1ccc(C(F)(F)F)cc1Cl', 0.0),
  ('Cc1ncnc(C(=O)N2CCN(c3c4n(c5nc(-c6ccc7c(c6)COC7(C)C)nn5c3=O)[C@H](C(=O)Nc3ccc(C(F)(F)F)cc3Cl)C[C@@H]4C)[C@H]3CC[C@@H]32)c1O', 1.0);

----------
TARGET UNDER TEST: Bifunctional 3'-5' exonuclease/ATP-dependent helicase WRN [480-1251] (UniProt Q14191)
Construct: 480-1251
TEST NAME: Biochemical Activity Assays
Experimental: The pure fractions were pooled and desalted/buffer exchanged into storage buffer using a HiTrap desalting column. […] First, WRN alone was pre-incubated with DMSO or compound of interest for 15 minutes. To initiate the reaction, ATP, dsDNA substrate, and ssDNA competitor (ssDNA_comp: […]) were added and incubated at room temperature for 20 minutes at which point DNA unwinding activity was monitored by measuring Cy3 fluorescence. […]
READOUT TYPE: IC50

INSERT INTO assay_data (smiles_input, target_under_test, experimental_value) VALUES
  ('CCc1c(N2CCN(C(=O)c3nsc(N4CCOCC4)c3O)CC2)c(=O)n2nc(-c3ccc4c(c3)COC4)nc2n1CC(=O)Nc1ccc(C(F)(F)F)cc1Cl', 'Bifunctional 3''-5'' exonuclease/ATP-dependent helicase WRN [480-1251] (UniProt Q14191)', '70 nM'),
  ('CCc1c(N2CCN(C(=O)c3cc(N4CCN(C)CC4)nc(C)c3O)CC2)c(=O)n2nc(-c3ccc4c(c3)COC4)nc2n1CC(=O)Nc1ccc(C(F)(F)F)cc1Cl', 'Bifunctional 3''-5'' exonuclease/ATP-dependent helicase WRN [480-1251] (UniProt Q14191)', '103 nM'),
  ('CCc1c(N2CCN(C(=O)c3cc4nnn(C)c4cc3OC)CC2)c(=O)n2nc(-c3ccc4c(c3)COC4)nc2n1CC(=O)Nc1ccc(C(F)(F)F)cc1Cl', 'Bifunctional 3''-5'' exonuclease/ATP-dependent helicase WRN [480-1251] (UniProt Q14191)', '94 nM'),
  ('CCc1c(N2CCN(C(=O)c3ncnc(C)c3O)CC2)c(=O)n2nc(-c3ccc4c(c3)CC[C@H]4OC(F)F)nc2n1CC(=O)Nc1ccc(C(F)(F)F)cc1Cl', 'Bifunctional 3''-5'' exonuclease/ATP-dependent helicase WRN [480-1251] (UniProt Q14191)', '98 nM'),
  ('CCc1c(N2CCN(C(=O)c3ncnc(C)c3O)CC2)c(=O)n2nc(C3=CCOCC3)nc2n1CC(=O)Nc1ccc(OC(F)F)cc1Cl', 'Bifunctional 3''-5'' exonuclease/ATP-dependent helicase WRN [480-1251] (UniProt Q14191)', '161 nM');

----------
TARGET UNDER TEST: Bifunctional 3'-5' exonuclease/ATP-dependent helicase WRN (Homo sapiens)
TEST NAME: ADP-Glo Kinase Assay
READOUT TYPE: IC50 (nM)

INSERT INTO results (compound, target_under_test, readout_type, experimental_value) VALUES
  ('CCc1c(N2CCN(C(=O)c3ncnc(C)c3O)CC2)c(=O)n2nc(-c3cc4c(cc3F)COC4)nc2n1CC(=O)Nc1ccc(C(F)(F)F)cc1Cl [WO2025049746, Example 201]', 'Bifunctional 3''-5'' exonuclease/ATP-dependent helicase WRN (Homo sapiens)', 'IC50', 25),
  ('CCc1c(N2CCN(C(=O)c3ncnc(C)c3O)CC2)c(=O)n2nc(-c3cc4n(n3)CCC4)nc2n1CC(=O)Nc1ccc(C(F)(F)F)cc1Cl [WO2025049746, Example 183]', 'Bifunctional 3''-5'' exonuclease/ATP-dependent helicase WRN (Homo sapiens)', 'IC50', 52),
  ('CCc1c(N2CCN(C(=O)c3ncnc(C)c3O)[C@H]3CC[C@H]32)c(=O)n2nc(-c3ccc4c(c3)COC4(C)C)nc2n1CC(=O)Nc1ccc(C(F)(F)F)cc1Cl [WO2025049746, Example 460]', 'Bifunctional 3''-5'' exonuclease/ATP-dependent helicase WRN (Homo sapiens)', 'IC50', 52),
  ('CCc1c(N2CCN(C(=O)c3ccccc3NS(C)(=O)=O)CC2)c(=O)n2nc(N(C)C)nc2n1CC(=O)Nc1ccc(C(F)(F)F)c2c1CC2 [WO2025049746, Example 106]', 'Bifunctional 3''-5'' exonuclease/ATP-dependent helicase WRN (Homo sapiens)', 'IC50', 414),
  ('CCc1c(N2CCN(C(=O)c3ncnc(C)c3O)CC2)c(=O)n2nc(-c3cc(F)c4nc(C)oc4c3)nc2n1CC(=O)Nc1ccc(C(F)(F)F)cc1Cl [WO2025049746, Example 297]', 'Bifunctional 3''-5'' exonuclease/ATP-dependent helicase WRN (Homo sapiens)', 'IC50', 31);

----------
TARGET UNDER TEST: Bifunctional 3'-5' exonuclease/ATP-dependent helicase WRN (Homo sapiens, UniProt Q14191)
TEST NAME: ADP-Glo Kinase Assay
READOUT TYPE: IC50 (nM)

INSERT INTO assay_data (smiles_input, readout_type, experimental_value) VALUES
  ('CCc1c(N2CCN(C(=O)c3ncnc(C)c3O)CC2)c(=O)n2nc(-c3ccc4c(c3)C[C@@H](C)O4)nc2n1CC(=O)Nc1ccc(C(F)(F)F)cc1Cl', 'IC50', 40),
  ('CCc1c(N2CCN(C(=O)c3ncnc(C)c3O)CC2)c(=O)n2nc(-c3ccc4c(c3)CCO4)nc2n1CC(=O)Nc1c(Cl)cc(C(F)(F)F)c2c1CC2', 'IC50', 94),
  ('CCc1c(N2CCN(C(=O)c3ncnc(C)c3O)CC2)cn2nc(C3=CCOCC3)nc2c1CC(=O)Nc1ccc(C(F)(F)F)cc1Cl', 'IC50', 29700),
  ('Cc1ncnc(C(=O)N2CCN(c3c4n(c5nc(-c6ccc7c(c6)COC7(C)C)nn5c3=O)[C@@H](C(=O)Nc3ccc(C(F)(F)F)cc3Cl)C[C@H]4C)[C@H]3CC[C@@H]32)c1O', 'IC50', 29.1);

----------
Recorded pIC50, one value per entry.
TARGET UNDER TEST: Bifunctional 3'-5' exonuclease/ATP-dependent helicase WRN (Homo sapiens, UniProt Q14191)
TEST NAME: ADP-Glo Kinase Assay
pIC50: −log10 of the molar value.
READOUT TYPE: pIC50

INSERT INTO measurements (smiles_input, experimental_value) VALUES
  ('CCc1c(N2CCN(C(=O)c3ncnc(C)c3O)CC2)c(=O)n2nc(-c3ccc4c(c3)OCO4)nc2n1CC(=O)Nc1c(Cl)cc(C(F)(F)F)c2c1CC2', 7.21),
  ('CCc1c(N2CCN(C(=O)c3ncnc(C)c3O)CC2)c(=O)n2nc(N3CCC4(COC4)C3)nc2n1CC(=O)Nc1ccc(C(F)(F)F)cc1Cl', 7.13),
  ('CCc1c(N2CCN(C(=O)c3ncnc(C)c3O)CC2)c(=O)n2nc(N3CC4(COC4)C3)nc2n1CC(=O)Nc1ccc(C(F)(F)F)cc1Cl', 7.11);

----------
TARGET UNDER TEST: Bifunctional 3'-5' exonuclease/ATP-dependent helicase WRN [480-1251] (UniProt Q14191)
Construct: 480-1251
TEST NAME: Biochemical Activity Assays
pIC50: −log10 of the molar value.
READOUT TYPE: pIC50

INSERT INTO results (compound, experimental_value) VALUES
  ('CCc1c(N2CC[C@@H](C)N(C(=O)c3ncnc(C)c3O)CC2)c(=O)n2nc(C3=CCOCC3)nc2n1CC(=O)Nc1ccc(C(F)(F)F)cc1Cl [WO2025049746, Example 341]', 7.17),
  ('CCc1c(N2CCN(C(=O)c3nc4c(cc3OCc3ccc(OC)cc3)COCC4)CC2)c(=O)n2nc(-c3ccc4c(c3)COC4(C)C)nc2n1CC(=O)Nc1ccc(C(F)(F)F)cc1Cl [WO2025049746, Example 464]', 7.08),
  ('CCc1c(N2CCN(C(=O)c3ncnc(C)c3O)CC2)c(=O)n2nc(-c3ccc4c(c3)CCO4)nc2n1CC(=O)Nc1c(Cl)cc(C(F)(F)F)c2c1CC2 [WO2025049746, Example 383]', 7.13);
